The values you see were collected from patent US20240000834A1.

# Test system: G12V antigen peptide presented on SW620-DPB cells (SW620 expressing HLA-DPB1*03:01) (human)
# Assay procedure: cell-based or functional assay
Property measured: Emax relative to WT (%)
One number for each entry, in %.

For every item in the list below, what is its measured Emax relative to WT?
1. α49K-G (TCR) TCR alpha: AQSVAQPEDQVNVAEGNPLTVKCTYSVSGNPYLFWYVQYPNRGLQFLLGYITGDNLVKGSYGFEAEFNKSQTSFHLKKPSALVSDSALYFCAVRDGRGGGNKLTFGTGTQLKVEL TCR beta: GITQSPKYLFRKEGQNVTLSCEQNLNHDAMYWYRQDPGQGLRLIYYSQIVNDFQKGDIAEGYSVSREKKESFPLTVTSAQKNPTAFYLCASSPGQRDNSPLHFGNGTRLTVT
2. β48Y-F (TCR) TCR alpha: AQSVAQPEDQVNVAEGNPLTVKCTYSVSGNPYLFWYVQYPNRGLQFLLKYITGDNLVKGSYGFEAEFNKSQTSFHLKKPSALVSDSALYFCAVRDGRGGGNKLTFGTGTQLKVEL TCR beta: GITQSPKYLFRKEGQNVTLSCEQNLNHDAMYWYRQDPGQGLRLIYFSQIVNDFQKGDIAEGYSVSREKKESFPLTVTSAQKNPTAFYLCASSPGQRDNSPLHFGNGTRLTVT
3. α51I-E (TCR) TCR alpha: AQSVAQPEDQVNVAEGNPLTVKCTYSVSGNPYLFWYVQYPNRGLQFLLKYETGDNLVKGSYGFEAEFNKSQTSFHLKKPSALVSDSALYFCAVRDGRGGGNKLTFGTGTQLKVEL TCR beta: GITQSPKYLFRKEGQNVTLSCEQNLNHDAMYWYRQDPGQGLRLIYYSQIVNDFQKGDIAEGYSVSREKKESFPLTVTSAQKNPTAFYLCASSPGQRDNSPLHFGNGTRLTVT
4. α49K-Y (TCR) TCR alpha: AQSVAQPEDQVNVAEGNPLTVKCTYSVSGNPYLFWYVQYPNRGLQFLLYYITGDNLVKGSYGFEAEFNKSQTSFHLKKPSALVSDSALYFCAVRDGRGGGNKLTFGTGTQLKVEL TCR beta: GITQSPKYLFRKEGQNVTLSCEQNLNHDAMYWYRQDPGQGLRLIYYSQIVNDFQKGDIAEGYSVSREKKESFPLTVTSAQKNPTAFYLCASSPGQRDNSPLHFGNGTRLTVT
5. α51I-W (TCR) TCR alpha: AQSVAQPEDQVNVAEGNPLTVKCTYSVSGNPYLFWYVQYPNRGLQFLLKYWTGDNLVKGSYGFEAEFNKSQTSFHLKKPSALVSDSALYFCAVRDGRGGGNKLTFGTGTQLKVEL TCR beta: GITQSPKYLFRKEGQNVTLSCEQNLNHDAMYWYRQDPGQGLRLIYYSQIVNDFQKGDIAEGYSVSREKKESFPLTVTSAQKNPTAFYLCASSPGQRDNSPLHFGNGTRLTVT
6. β56Q-L (TCR) TCR alpha: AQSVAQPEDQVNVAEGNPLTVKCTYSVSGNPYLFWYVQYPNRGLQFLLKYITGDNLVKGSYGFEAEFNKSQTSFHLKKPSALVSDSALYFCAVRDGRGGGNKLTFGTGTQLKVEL TCR beta: GITQSPKYLFRKEGQNVTLSCEQNLNHDAMYWYRQDPGQGLRLIYYSQIVNDFLKGDIAEGYSVSREKKESFPLTVTSAQKNPTAFYLCASSPGQRDNSPLHFGNGTRLTVT
7. β50Q-N (TCR) TCR alpha: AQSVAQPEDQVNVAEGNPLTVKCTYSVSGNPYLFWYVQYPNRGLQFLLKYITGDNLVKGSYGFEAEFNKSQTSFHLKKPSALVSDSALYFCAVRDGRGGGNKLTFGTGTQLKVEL TCR beta: GITQSPKYLFRKEGQNVTLSCEQNLNHDAMYWYRQDPGQGLRLIYYSNIVNDFQKGDIAEGYSVSREKKESFPLTVTSAQKNPTAFYLCASSPGQRDNSPLHFGNGTRLTVT

Output line:
1. 104
2. 180
3. 95
4. 82
5. 134
6. 108
7. 97

For every item in the list below, what is its measured Emax relative to WT?
1. β56Q-T (TCR) TCR alpha: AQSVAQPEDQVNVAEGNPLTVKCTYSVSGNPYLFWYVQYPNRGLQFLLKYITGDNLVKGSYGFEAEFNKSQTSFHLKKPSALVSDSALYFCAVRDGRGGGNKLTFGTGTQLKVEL TCR beta: GITQSPKYLFRKEGQNVTLSCEQNLNHDAMYWYRQDPGQGLRLIYYSQIVNDFTKGDIAEGYSVSREKKESFPLTVTSAQKNPTAFYLCASSPGQRDNSPLHFGNGTRLTVT
2. α52T-A (TCR) TCR alpha: AQSVAQPEDQVNVAEGNPLTVKCTYSVSGNPYLFWYVQYPNRGLQFLLKYIAGDNLVKGSYGFEAEFNKSQTSFHLKKPSALVSDSALYFCAVRDGRGGGNKLTFGTGTQLKVEL TCR beta: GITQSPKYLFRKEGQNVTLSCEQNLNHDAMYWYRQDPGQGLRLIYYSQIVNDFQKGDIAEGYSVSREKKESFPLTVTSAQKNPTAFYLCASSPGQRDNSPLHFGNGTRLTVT

Output line:
131
131

Emax relative to WT reading for α51I-Y (TCR) TCR alpha: AQSVAQPEDQVNVAEGNPLTVKCTYSVSGNPYLFWYVQYPNRGLQFLLKYYTGDNLVKGSYGFEAEFNKSQTSFHLKKPSALVSDSALYFCAVRDGRGGGNKLTFGTGTQLKVEL TCR beta: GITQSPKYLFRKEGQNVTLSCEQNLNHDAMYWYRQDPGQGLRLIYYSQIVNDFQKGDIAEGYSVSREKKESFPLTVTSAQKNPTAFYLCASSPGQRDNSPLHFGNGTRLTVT : 94
